Where do these numbers come from? They come from PubChem BioAssay (NCI).

Tested on: HL-60(TB) leukemia
Experiment: NCI-60 one-dose screen, 48 h
Conditions: 10 µM unless noted
Procedure: Growth inhibition of the HL-60(TB) human tumor cell line is measured as a screen for anti-cancer activity. Cells are grown in 96 well plates and exposed to the test compound for 48 hours. Compounds are tested at a single concentration, which is 10^-5 M for most compounds. The reported endpoint is percent growth (GI% or GIPRCNT), where numbers from 0 - 100% represent growth inhibition, and numbers from -100% - 0 represent cell death. For example, a value of 40 represents 60% growth inhibition. […]
About 83,000 compounds went through this panel and 20% of them were active in at least one assay; those are over-represented in the sample as a whole. The source made the active and inactive calls. How the source made its calls: active means growth percent below 10; inactive means the rest.
Answer with one of the outcomes given here: yes (1) = active, no (0) = inactive

Challenge: Hi team, can someone confirm the assay call for Cc1cc2cn3c4ccc(O)cc4nc(N)c3c2cc1C ?
Response given: yes (1)

Challenge: Assay result, entry Oc1cc(/C=C/c2nc(N3CCOCC3)c3cc(Cl)c(Cl)cc3n2)cc(O)c1O — outcome?
Response given: no (0)

Challenge: Outcome? CCCn1cnc2c1c(=O)n(CCCCC(C)=O)c(=O)n2C
Response given: no (0)

Challenge: Outcome logged for COc1cc(C(=O)c2cnc(-c3cccc4[nH]ccc34)[nH]2)cc(OC)c1OC in this assay:
Response given: yes (1)
